Test system: HOP-92
ASSAY DETAILS: NCI tumour cell line growth inhibition, 48 h
Calls of active or inactive are those of the source. No stated cut-off is given here; in the data, active = GI50 up to about 1.1 µM and inactive = higher.
MEASURED METRIC: GI50

Solved entries (count: 3):
CCC1OC(=O)C(C)C(OC2CC(C)(O)C(O)C(C)O2)C(C)C(O)C(C)(O)CC(C)C(=O)C(C)C(O)C1C (stereo not given) | 30 µM (inactive)
CN(O)C(=O)c1cccc(Cl)c1 | > 100 µM (inactive)
COc1ccc(OC)c2c1C(=O)C(Cl)=C(Cl)C2=O | 2.51 µM (inactive)

Which value of GI50 has been reported for `N#CCCN(CCC#N)c1ccc(/C=C2\N=C(c3ccccc3)N(c3ccccn3)C2=O)cc1` in the records?
> 100 µM (inactive)

Which value of GI50 has been reported for `COC(=O)c1cc(C)ccc1/C=C1\Cc2cccc(C)c2C1=O` in the records?
20.4 µM (inactive)

Which value of GI50 has been reported for CCNc1nc2c(ncn2C2CC(O)C(COP(=O)(O)O)O2)c(=O)[nH]1 (stereo not given) in the records?
> 100 µM (inactive)

Which value of GI50 has been reported for CC(C)Cc1ccc(C(C)CC2=CCC(CN(C)C)C2=O)cc1 (stereo not given) in the records?
2.95 µM (inactive)

Which value of GI50 has been reported for COC(=O)C1Cc2c(n(C)c3ccccc23)C(c2ccccc2)N1 (stereo not given) in the records?
> 100 µM (inactive)

Which value of GI50 has been reported for CC(C)(C)[Si](C)(C)OCC1OC(n2cnc3c(=O)[nH]cnc32)CC1O (stereo not given) in the records?
> 100 µM (inactive)

Which value of GI50 has been reported for CCc1ncnc2cc(OCC3CO3)c(OC)cc12 (stereo not given) in the records?
4.26 µM (inactive)

Which value of GI50 has been reported for O=C(c1ccccc1)N1CCN2CCN=C(c3ccccc3)C21c1ccccc1 (stereo not given) in the records?
17.1 µM (inactive)

Which value of GI50 has been reported for CC1c2[nH]c3ccccc3c2CCN1O (stereo not given) in the records?
> 100 µM (inactive)

Which value of GI50 has been reported for `Nc1nc(Cl)cc(Nc2ccc3c(c2)CCC3)n1` in the records?
> 100 µM (inactive)

Which value of GI50 has been reported for `CN(C)CCN(/C(=N/c1ccccc1)N1CCCC1)c1ccccc1` in the records?
96.8 µM (inactive)

Which value of GI50 has been reported for CC1OC(OC2C(O)COC(OC3C(C)OC(OC4C(OC(=O)[C@]56CCC(C)(C)C[C@@H]5C5=CCC7[C@@]8(C)C[C@H](O)[C@H](OC9OC(CO)C(O)C(O)C9O)[C@@](C)(CO)[C@@H]8CC[C@@]7(C)[C@]5(C)CC6)OCC(O)C4O)C(O)C3O)C2O)C(O)C(O)C1O (stereo not given in full) in the records?
23.7 µM (inactive)

Which value of GI50 has been reported for `O=C1c2cccc3cc4ccccc4c(c23)C(=O)N1CCNCCN1C(=O)c2cccc3cc4ccccc4c(c23)C1=O` in the records?
0.449 µM (active)

Which value of GI50 has been reported for `CC(C)(/C=N/O)/[N+]([O-])=C/c1ccccc1` in the records?
> 100 µM (inactive)

Which value of GI50 has been reported for CCC1C[N+]23CCc4c([nH]c5ccccc45)C2CC1CC3 (stereo not given) in the records?
82.6 µM (inactive)

Which value of GI50 has been reported for `COc1cc(/C=C\c2ccc(C)cc2)cc(OC)c1OC` in the records?
0.0652 µM (active)

Which value of GI50 has been reported for `CNc1c2c(c3nc4ccccc4c4c3c1N=C4)NCCC2=O` in the records?
4.51 µM (inactive)

---

Tested on: A549
ASSAY DETAILS: NCI tumour cell line growth inhibition, 48 h
The source made the active and inactive calls. Cut-off read from the data, not from the text of the source: active = GI50 up to about 1.1 µM and inactive = higher.
MEASURED METRIC: GI50

Solved entries (count: 5):
CC(C)(C)[Si](C)(C)OCC1OC(n2cnc3c(=O)[nH]cnc32)CC1O (configuration not stated) | > 100 µM (inactive)
COc1ccc([C@@H]2CC(=O)NCCCNCCCCNCCCN2)cc1 | > 100 µM (inactive)
CN(C)c1n/c(=N/c2ccc3c(c2)OCO3)ss1 | 44.6 µM (inactive)
O=C(c1ccccc1)c1ccc2c(c1)nc1n2C(c2c(F)cccc2F)SC1 (configuration not stated) | 22 µM (inactive)
O=c1ncccn1C1OC(CO)C(O)C1O (configuration not stated) | > 100 µM (inactive)

Which value of GI50 has been reported for `O=C(CCCn1cnc([N+](=O)[O-])n1)NCCCn1ccnc1[N+](=O)[O-]` in the records?
> 100 µM (inactive)

Which value of GI50 has been reported for `COc1ccc(CN(CCc2c[nH]c3ccccc23)Cc2ccc(OC)cc2)cc1` in the records?
3.63 µM (inactive)

Which value of GI50 has been reported for `Cc1ccc(C2=Nc3c(c(C)nn3-c3ccccc3)N=C(C(=O)O)C2)cc1` in the records?
> 10 µM (inactive)

Which value of GI50 has been reported for N=C(N)C1CN(CCCCCCCCCCN2CC(C(=N)N)C(O)=NC2=O)C(=O)N=C1O (configuration not stated) in the records?
> 10 µM (inactive)

Which value of GI50 has been reported for `O=[N+]([O-])c1ccc(Sc2c3ccccc3nc3ccccc23)cc1` in the records?
> 100 µM (inactive)

---

Tested on: HOP-92
ASSAY DETAILS: NCI tumour cell line growth inhibition, 48 h
The source made the active and inactive calls. No stated cut-off is given here; in the data, active = GI50 up to about 1.1 µM and inactive = higher.
Entries and their GI50 values follow.

Solved entries (count: 5):
Cc1nc2c(o1)/C(=N\c1ccccc1)c1ccccc1C2=O | 12.3 µM (inactive)
O=[N+]([O-])c1cccc(C2=NOC(C3CCCCC3)C2)c1 (stereo not drawn) | > 100 µM (inactive)
O=C(O)CN1CCCC(Cc2c[nH]c3ccccc23)C1 (stereo not drawn) | > 100 µM (inactive)
C=CC(OCC)(OCC)OCC | > 100 µM (inactive)
Cc1cn2c(=O)c3ncn(C4OC(CO)C(O)C4O)c3n(C)c2n1 (stereo not drawn) | > 100 µM (inactive)

Which value of GI50 has been reported for `O=C(/C=C(\O)C(=O)O)/C=C(\O)c1ccc(Cl)cc1` in the records?
> 100 µM (inactive)

Which value of GI50 has been reported for `CC(=O)c1ccc(O)c(CN(C2CCCCC2)C2CCCCC2)c1O` in the records?
> 100 µM (inactive)

Which value of GI50 has been reported for `C(/C=N/N=C1NCCCN1)=N\N=C1NCCCN1` in the records?
56.5 µM (inactive)

Which value of GI50 has been reported for `Cc1c(C)c([N+](=O)[O-])c2c(c1N)C(=O)c1ccccc1C2=O` in the records?
> 100 µM (inactive)

Which value of GI50 has been reported for CCn1c(SC(C)C(=O)c2c(C)n(C)n(-c3ccccc3)c2=O)nc2ccccc2c1=O (stereo not drawn) in the records?
4.47 µM (inactive)

Which value of GI50 has been reported for C=CCC(C(=O)Nc1cccc2nc[nH]c12)C(=O)OCC (stereo not drawn) in the records?
> 100 µM (inactive)

---

Entries and their GI50 values follow.
System: KM12
ASSAY DETAILS: NCI tumour cell line growth inhibition, 48 h
Activity calls are given as the source filed them. Cut-off read from the data, not from the text of the source: active = GI50 up to about 1.1 µM and inactive = higher.

Solved entries (count: 5):
CSC1=N/C(=C\c2ccc(Cl)cc2)C(=O)N1CN1CCOCC1 | 85.7 µM (inactive)
Clc1ccc(Cn2cc(/C=N/n3cnnc3)c3ccccc32)cc1 | 70.3 µM (inactive)
Cc1cn2c(=O)c3ncn(C4OC(CO)C(O)C4O)c3n(C)c2n1 (configuration not stated) | > 100 µM (inactive)
CC1OC(c2ccc3c(OCc4ccccc4)cccc3c2O)CC(OCc2ccccc2)[C@H]1OCc1ccccc1 (some centres not stated) | > 10 µM (inactive)
COc1ccc(N2C(=O)C3c4[nH]c5cc(C)ccc5c4C4CCC(C(C)(C)C)CC4C3C2=O)cc1 (configuration not stated) | > 10 µM (inactive)

Which value of GI50 has been reported for `N#Cc1sc2c(c1OC(=O)c1ccco1)c(=O)n(-c1ccccc1)c(=S)n2-c1ccccc1` in the records?
30.3 µM (inactive)

Which value of GI50 has been reported for COC(=O)C(=O)C(C(=O)C=C(C)C)C(=O)C(=O)Nc1cc(C(F)(F)F)ccc1Cl (configuration not stated) in the records?
> 100 µM (inactive)

Which value of GI50 has been reported for `O=C(CCCn1cnc([N+](=O)[O-])n1)NCCCn1ccnc1[N+](=O)[O-]` in the records?
> 100 µM (inactive)

---

Tested on: LOX IMVI
ASSAY DETAILS: NCI tumour cell line growth inhibition, 48 h
The source made the active and inactive calls. Rule as the data show it: active = GI50 up to about 1.1 µM and inactive = higher.
Answer with one of the outcomes active, inactive

CC(=O)c1cccc(NC(=O)C(=O)Nn2c(N)nnc2N)c1 | inactive
C1=CN2C[n+]3cccc(OCc4ccccc4)c3N=C2C(OCc2ccccc2)=C1 | inactive
S=C(S)NCCCn1ccnc1 | inactive
CC1(C)OC2CN(C(=O)OCc3ccccc3)C(CO)C2O1 (centres undefined) | inactive
CN1C(=O)C23CCCC2CC1(c1ccccc1)S3 (centres undefined) | inactive
NS(=O)(=O)c1ccc(NC(=S)N/C=C2\C(=O)Nc3ccccc3C2=O)cc1 | inactive
CCN(CC)CCNc1ccc2ncn3c4ccc(O)cc4c(=O)c1c23 | active
Cc1ccc2c(n1)C(=O)c1ccccc1C2=O | inactive

# fetch the recorded call for `O=C(Nc1ccc([N+](=O)[O-])cc1Cl)c1cccc([N+](=O)[O-])c1O` here
inactive
